protocolSummary: NCI Yeast Anticancer Drug Screen. Data for the sgs1 mgt1 strain (AID 161);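 further: 0% = growth of cultures given vehicle only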
particulars: S. cerevisiae sgs1 mgt1 strain, at 50.0 µM, active compounds read high
About 79,000 compounds went through this panel and 15% of them were active in at least one assay; those are over-represented in the sample as a whole.
Give measured growth inhibition for each item. Keep answers brief.
Numbers only here, please. The scale is %.

The compound CCCCNCC(=O)O[C@]1(CC)C(=O)OCc2c1cc1n(c2=O)Cc2cc3ccccc3nc2-1 showed growth inhibition equal to 49.5

The compound COC(=O)C(=O)C1(C)CCc2c(ccc3ccc(OC)cc23)C1=O (stereo not given) showed growth inhibition equal to -5.9

The compound O=C(N/N=C/c1ccccc1)c1c(F)c(F)c(F)c(F)c1F showed growth inhibition equal to -32.9

The compound Oc1cccc(NCNC2Nc3ccccc3N2)c1 showed growth inhibition equal to -1.4

The compound COc1nc2c(nc(N)n2C2OC(CO)C(O)C(O)C2O)c(=O)[nH]1 (stereo not given) showed growth inhibition equal to -1.5

The compound CCCCNCCCNCCCC showed growth inhibition equal to 0.65

The compound c1ccc(-c2cccc(-c3ccccc3)n2)cc1 showed growth inhibition equal to -1.4

The compound COc1cccc(/C=C2/C(=O)N(c3ccc([N+](=O)[O-])cc3)N=C2C)c1 showed growth inhibition equal to 37.9

The compound C/C(=N\NS(=O)(=O)c1ccc(N)cc1)c1ccc(C)cc1C showed growth inhibition equal to 0.8

The compound COC(=O)C(C(=O)OC)C(Br)(OC(C)=O)OC(C)=O showed growth inhibition equal to 4.55

---

Give measured growth inhibition for each item. Keep answers brief.
protocolSummary: NCI Yeast Anticancer Drug Screen. Data for the bub3 strain (AID 167)
particulars: S. cerevisiae bub3 mutant strain, at 50.0 µM, active compounds read high
Compounds without any hit were thinned out: in the full panel of roughly 79,000, 15% have a hit.
Numbers only here, please. The scale is %.

The compound CC1CCc2cc(Br)ccc2N1N (stereo not given) showed growth inhibition equal to -4.8

The compound O=C1C(Cc2ccc(O)cc2)NC(=S)N1c1ccccc1 (stereo not given) showed growth inhibition equal to 20

The compound N#CC(c1ccccc1)c1cccc(C(=O)O)c1 (stereo not given) showed growth inhibition equal to -25.9

The compound O=S=NCCCl showed growth inhibition equal to -10.8

The compound N#CC1(C#N)C(c2ccccc2)C1(C#N)C(N)=O (stereo not given) showed growth inhibition equal to -6.7

The compound CC(C(=O)O)C(C)C(=O)O (stereo not given) showed growth inhibition equal to 5.1

The compound N#CC1CNCCC1=N (stereo not given) showed growth inhibition equal to -1.55

The compound CN(C)C(=O)NC(=S)N(C)C showed growth inhibition equal to 4.05

The compound COc1ccccc1C(N)c1ccccc1 (stereo not given) showed growth inhibition equal to -0.7

The compound O=C1/C(=C/c2ccc(Cl)c(Cl)c2)CCC/C1=C\c1ccc(Cl)c(Cl)c1 showed growth inhibition equal to -3.7

The compound CCOC(=O)c1c(C(C)=O)cnc2c(C#N)cnn12 showed growth inhibition equal to 0.6

The compound O=c1cc(O)n2ncnc2[nH]1 showed growth inhibition equal to -12.6

The compound CCCCCCCCCCCCCCCCSc1cccc(C)c1 showed growth inhibition equal to 1.3

The compound CCOC(=O)CNC(=O)C(CSSCC(NC(=O)OCc1ccccc1)C(=O)OC)NC(=O)C(NC(=O)OCc1ccccc1)C(C)C (stereo not given) showed growth inhibition equal to -11.7

The compound CN(C)c1ccc(/C=N/NS(=O)(=O)c2ccc(N)cc2)cc1 showed growth inhibition equal to -32.2

The compound CC(C=O)CCC(C)(O)C=O (stereo not given) showed growth inhibition equal to -10.5

The compound CN(C)NC(=O)Oc1ccc(Cl)cc1 showed growth inhibition equal to -33.3

The compound C=CCCC1CN2CCc3cc(OC)c(OC)cc3C2CC1=O (stereo not given) showed growth inhibition equal to 28.4

The compound CCOC(=O)c1cnc(=S)[nH]c1N showed growth inhibition equal to -3.15

The compound O=C(O)C(CCCN1C(=O)c2ccccc2C1=O)N1C(=O)c2ccccc2C1=O (stereo not given) showed growth inhibition equal to -0.35

The compound C=C1C(=O)O[C@H]2[C@H]1CC(=O)/C(C)=C\CC[C@@]1(C)O[C@@H]21 showed growth inhibition equal to 64.8

The compound CCOc1ccccc1NC(=O)C(=O)Cc1nc2ccccc2s1 showed growth inhibition equal to -0.75

The compound NC(=O)c1ccc2c(ccc3ccccc32)c1 showed growth inhibition equal to -1.8

The compound CCOC(=O)C1=C(N)n2c(s/c(=C/c3ccc(N(C)C)cc3)c2=O)=C(C(=O)OCC)C1c1ccc(N(C)C)cc1 (stereo not given) showed growth inhibition equal to 3.4

The compound CCCCN=C(N)N=C(N)N showed growth inhibition equal to -5.15

The compound O=c1cc(-c2ccccc2)c2ccc(O)cc2o1 showed growth inhibition equal to 2

The compound COC(=O)c1cc2ccc1OCC#CC#CCOc1ccc(cc1C(=O)OC)OCC#CC#CCO2 showed growth inhibition equal to -0.7

The compound Cc1ccccc1C(c1ccccc1C)c1ccccc1C showed growth inhibition equal to 1.25

The compound COc1ccc(OCOCOc2ccc(OC)cc2)cc1 showed growth inhibition equal to 42.9

The compound N=C(N)Cn1cnc2ccccc21 showed growth inhibition equal to 3.8

The compound COc1ccccc1N=Nc1c(-c2ccccc2)nn(C(N)=S)c1-c1ccccc1 showed growth inhibition equal to -0.05

The compound Nc1ccc(Sc2nnc(N)s2)cc1 showed growth inhibition equal to -31.4

The compound O=C(Nc1ccccc1Cl)Nc1ccccc1Br showed growth inhibition equal to 6.8

The compound CC(=O)OCC1OC(OCC(OC(C)=O)C(OC(C)=O)C(OC(C)=O)c2cnn(-c3ccccc3)n2)C(OC(C)=O)C(OC(C)=O)C1OC(C)=O (stereo not given) showed growth inhibition equal to 12.4

The compound O=S1(=O)OCCOS(=O)(=O)C1S(=O)(=O)c1cccc2ccccc12 showed growth inhibition equal to -2.95

The compound Cn1c(=O)oc2cc(C(O)CN3CCN(Cc4ccccn4)CC3)c(Cl)cc21 (stereo not given) showed growth inhibition equal to 6.25

The compound C=CC(C)C(C)C (stereo not given) showed growth inhibition equal to 8.65

The compound Cc1ccc(C(=O)N/N=C/c2ccc(N(C)C)cc2Cl)cc1 showed growth inhibition equal to 61

The compound CCC(/C=C\C(C)C1CCC2C3CC=C4CC(OS(=O)(=O)c5ccc(C)cc5)CCC4(C)C3CCC12C)C(C)C (stereo not given) showed growth inhibition equal to 1.1

The compound O=C1CSC(c2ccc([N+](=O)[O-])cc2)N1c1nncs1 (stereo not given) showed growth inhibition equal to -8.7

The compound OC1C2CC3C(C2)C13 (stereo not given) showed growth inhibition equal to -18.4

The compound CSc1n[n+]2c(s1)SCCC2 showed growth inhibition equal to -8.7

The compound CCCCCCCCCCCCCCCCCC(=O)N/N=C\c1ccc(O)c(OC)c1 showed growth inhibition equal to -2.55

The compound CN(C)CCCCl showed growth inhibition equal to -15.5

The compound Cc1ccc(S(=O)(=O)Nc2nc3ccccc3c(=O)n2C2CCCCC2)cc1 showed growth inhibition equal to -19.5

The compound COC(=O)C(=O)C1CCc2c(ccc3c2CCCC3)C1 (stereo not given) showed growth inhibition equal to 8.2

The compound COc1cccc(N=Nc2c(-c3ccccc3)nn(C(=S)S)c2C)c1 showed growth inhibition equal to 19.3

The compound COc1cc(/C=N/NC(=O)Cc2cccc3ccccc23)ccc1O showed growth inhibition equal to 39.4

The compound CC1=C(C)C(=O)C=CC1=O showed growth inhibition equal to 3.95

The compound CCNc1nnc(N=Nc2ccccc2)s1 showed growth inhibition equal to 7.55

Numbers sourced from PubChem BioAssay (NCI).
